# Assay overview: Effect of verapamil, PEG 400 and EDTA on trans-enterocyte transport of CA
# Format: in vitro ADME, human
# Assay conditions: human, Caco-2, CA 100 μM, 1.5 h, + 5 mmoL/L EDTA; read-out: Papp AP to BL
# Method: CA was dissolved in HBSS solution at 50, 75, and 100 μM. The HBSS solution containing CA combined with 0.5% Tween 80, 5 mmol/L EDTA or 5% PEG 400 was prepared. The cumulative migration (Qr), apparent permeability coefficient (Papp), and the Papp value of bi-direction transport of CA were calculated according to formulas. […]
Outcome measure: Papp A→B at 1.5 h, 100 μM (×10⁻⁶ cm/s)
// note: answer is a bare numeric in ×10⁻⁶ cm/s

Exam item: Provide Papp A→B at 1.5 h, 100 μM value for the following compound: CC(C)c1cc2c(c(O)c1O)[C@@]1(C(=O)O)CCCC(C)(C)[C@@H]1CC2 [CA, Carnosic acid]
Marked response: 1.96
